B1: GA-binding protein alpha chain, residues 172 to 250; numbered along this chain, Q06546 (parent)
chain: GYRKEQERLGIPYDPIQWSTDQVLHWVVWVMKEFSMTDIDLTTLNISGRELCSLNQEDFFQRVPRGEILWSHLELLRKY

- Variants of: B1
- test_description: abundance fitness (aPCA) (normalised: wild type 0, dead -1); higher = more abundant; growth selection in yeast, the domain comes from the species named
- details: Homo sapiens
Rule: fulfilled for abundance fitness not less than -0.1, not fulfilled for anything less.

Entry S47N : is its abundance fitness no less than -0.1?
fulfilled

Entry R62W : is its abundance fitness no less than -0.1?
not fulfilled

Entry I11V : is its abundance fitness no less than -0.1?
not fulfilled

Entry E57Y : is its abundance fitness no less than -0.1?
fulfilled

Entry K32P : is its abundance fitness no less than -0.1?
not fulfilled

Entry S47A : is its abundance fitness no less than -0.1?
not fulfilled

Entry V28A : is its abundance fitness no less than -0.1?
fulfilled

Entry K32A : is its abundance fitness no less than -0.1?
not fulfilled

Entry P64G : is its abundance fitness no less than -0.1?
not fulfilled

Entry Q6A : is its abundance fitness no less than -0.1?
fulfilled

Entry H25F : is its abundance fitness no less than -0.1?
not fulfilled

Entry F34E : is its abundance fitness no less than -0.1?
fulfilled

Entry I68E : is its abundance fitness no less than -0.1?
fulfilled

Entry E7Y : is its abundance fitness no less than -0.1?
not fulfilled

Entry S53C : is its abundance fitness no less than -0.1?
fulfilled

Entry L24G : is its abundance fitness no less than -0.1?
not fulfilled

Entry I46G : is its abundance fitness no less than -0.1?
not fulfilled

Entry H25D : is its abundance fitness no less than -0.1?
not fulfilled

Entry F34M : is its abundance fitness no less than -0.1?
not fulfilled

Entry D14P : is its abundance fitness no less than -0.1?
not fulfilled

Entry G10I : is its abundance fitness no less than -0.1?
not fulfilled

Entry L69V : is its abundance fitness no less than -0.1?
not fulfilled

Entry Q17R : is its abundance fitness no less than -0.1?
fulfilled

Entry Y13G : is its abundance fitness no less than -0.1?
not fulfilled

Entry S47I : is its abundance fitness no less than -0.1?
not fulfilled

Entry L73A : is its abundance fitness no less than -0.1?
not fulfilled

Entry Y13S : is its abundance fitness no less than -0.1?
fulfilled

Entry L76A : is its abundance fitness no less than -0.1?
not fulfilled

Entry E57W : is its abundance fitness no less than -0.1?
not fulfilled

Entry V28R : is its abundance fitness no less than -0.1?
fulfilled

Entry K78N : is its abundance fitness no less than -0.1?
fulfilled

Entry R3Q : is its abundance fitness no less than -0.1?
fulfilled

Entry I16M : is its abundance fitness no less than -0.1?
fulfilled

Entry Y13E : is its abundance fitness no less than -0.1?
fulfilled

Entry I68P : is its abundance fitness no less than -0.1?
fulfilled

Entry C52N : is its abundance fitness no less than -0.1?
not fulfilled

Entry H72V : is its abundance fitness no less than -0.1?
not fulfilled

Entry S71L : is its abundance fitness no less than -0.1?
not fulfilled
